system: Klebsiella pneumoniae; assay: Antibacterial activity against Klebsiella pneumonia assessed growth inhibition by micro broth dilution method; type: functional
// thresholds for MIC classes: 1 = under 8 µg/mL, 2 = from 8 µg/mL up to 60 µg/mL, 3 = 60 µg/mL and over

Past entries and their recorded results:
Request: // bin(item) where item = "CCOC(=O)c1cn(CC(N)=O)c2cc(F)c(F)cc2c1=O"
Response: 3

Request: Next: CCOC(=O)c1cn(CC(=O)N2CCN(C(=O)OC(C)(C)C)CC2)c2cc([C-](C#N)C(=O)OCC)c(F)cc2c1=O.[Na+] (stereo unspecified)
Response: 3

Request: Next: "CCOC(=O)c1cn(C)c2cc(F)c(F)cc2c1=O"
Response: 3

Request: Next: "CCOC(=O)c1cn(Cc2ccc(F)cc2F)c2cc(F)c(F)cc2c1=O"
Response: 1

---
Request: // bin(item) where item = CCCCCCCCn1cc(C(=O)OCC)c(=O)c2cc(F)c(C(C#N)C(=O)OCC)cc21 (stereo unspecified)
Response: 1

Request: Next: "CCOC(=O)c1cn(CC=C(C)C)c2cc(F)c(F)cc2c1=O"
Response: 2

Request: Next: "CCOC(=O)c1cn(CC2CC2)c2cc(F)c(F)cc2c1=O"
Response: 3

Request: Next: CCOC(=O)c1cn(C)c2cc([C-](C#N)C(=O)OCC)c(F)cc2c1=O.[Na+] (stereo unspecified)
Response: 2

Request: Next: "CCOC(=O)c1cn(C2CC2)c2cc(F)c(F)cc2c1=O"
Response: 3

Request: Next: "CCOC(=O)c1cn(CC(=O)N2CCN(C(=O)OC(C)(C)C)CC2)c2cc(F)c(F)cc2c1=O"
Response: 3

====

Listing of entries alongside the reported MIC.
test system: Staphylococcus aureus; assay: Antibacterial activity against Staphylococcus aureus ATCC 25923 assessed growth inhibition by micro broth dilution method; format: functional

Request: Using the record for CCCCCCCCCCCCn1cc(C(=O)OCC)c(=O)c2cc(F)c([C-](C#N)C(=O)OCC)cc21.[Na+] (stereo unspecified) , report its MIC.
Response: 1 µg/mL

Request: Next: CCOC(=O)C(C#N)c1cc2c(cc1F)c(=O)c(C(=O)O)cn2CC (stereo unspecified)
Response: 4 µg/mL

Request: Next: "CCOC(=O)c1cn(C)c2cc(F)c(F)cc2c1=O"
Response: 256 µg/mL

Request: Next: "CCOC(=O)c1cn(CC(N)=O)c2cc(F)c(F)cc2c1=O"
Response: 256 µg/mL

Request: Next: CCOC(=O)c1cn(Cc2ccccc2Cl)c2cc([C-](C#N)C(=O)OCC)c(F)cc2c1=O.[Na+] (stereo unspecified)
Response: 0.5 µg/mL

Request: Next: "CCOC(=O)c1cn(Cc2ccc(F)cc2F)c2cc(F)c(F)cc2c1=O"
Response: 256 µg/mL

Request: Next: NC1CCN(c2c(F)cc3c(=O)c(C(=O)O)cn(C4CC4)c3c2Cl)C1 (stereo unspecified)
Response: 0.5 µg/mL

Request: Next: "CCCCCCCCCCCCn1cc(C(=O)OCC)c(=O)c2cc(F)c(F)cc21"
Response: 128 µg/mL

Request: Next: CCOC(=O)c1cn2c3c(c([C-](C#N)C(=O)OCC)c(F)cc3c1=O)OC[C@@H]2C.[Na+] (stereo partly specified)
Response: 4 µg/mL

Request: Next: CCCCCCCCn1cc(C(=O)O)c(=O)c2cc(F)c(C(C#N)C(=O)OCC)cc21 (stereo unspecified)
Response: 1 µg/mL

====

test system: Escherichia coli; assay: Antibacterial activity against Escherichia coli ATCC 25922 assessed growth inhibition by micro broth dilution method; assay type: functional
parameter.measured: MIC

The examples below pair each entry with its known result.
Request: Please tell me: MIC of CCOC(=O)c1cn2c3c(c([C-](C#N)C(=O)OCC)c(F)cc3c1=O)OC[C@@H]2C.[Na+] (some centres undefined) , system Escherichia coli?
Response: 64 mg/L

Request: Next: CCCCCCn1cc(C(=O)OCC)c(=O)c2cc(F)c([C-](C#N)C(=O)OCC)cc21.[Na+] (centres undefined)
Response: 1 mg/L

Request: Next: "CCOC(=O)c1cn(C)c2cc(F)c(F)cc2c1=O"
Response: 128 mg/L

Request: Next: "CCCCCCCCn1cc(C(=O)OCC)c(=O)c2cc(F)c(F)cc21"
Response: 64 mg/L

Request: Next: CCOC(=O)c1cn(CC2CCCC2)c2cc([C-](C#N)C(=O)OCC)c(F)cc2c1=O.[Na+] (centres undefined)
Response: 2 mg/L

---
Request: Please tell me: MIC of "CCOC(=O)c1cn(CC2CCCCC2)c2cc(F)c(F)cc2c1=O" , system Escherichia coli?
Response: 128 mg/L

Request: Next: "CCOC(=O)c1cn(CCN2CCOCC2)c2cc(F)c(F)cc2c1=O"
Response: 128 mg/L

Request: Next: CCOC(=O)c1cn(Cc2ccc(Cl)c(Cl)c2)c2cc([C-](C#N)C(=O)OCC)c(F)cc2c1=O.[Na+] (centres undefined)
Response: 0.25 mg/L

Request: Next: "CCOC(=O)c1cn(CC(=O)N2CCN(C(=O)OC(C)(C)C)CC2)c2cc(F)c(F)cc2c1=O"
Response: 64 mg/L

====

test: Tmax in mouse at 10 mg/kg, po; format: ADME, organism-based; settings: in vivo
parameter.measured: Tmax
Don't forget the unit after the value.

Request: Using the record for CCCCCCCCn1cc(C(=O)OCC)c(=O)c2cc(F)c([C-](C#N)C(=O)OCC)cc21.[Na+] (stereo unspecified) , report its Tmax.
Response: 30 min

====

system: Staphylococcus aureus; assay: Antibacterial activity against Staphylococcus aureus ATCC 25923 assessed growth inhibition by micro broth dilution method; format: functional
parameter.measured: log10(MIC) (log10 of the value in µg/mL)
Log10 applied to MIC; unit prior to transform: µg/mL.

Request: Using the record for "CCOC(=O)c1cn2c3c(c(F)c(F)cc3c1=O)OC[C@@H]2C" , report its log10(MIC).
Response: 1.51

---
Request: Using the record for CCOC(=O)c1cn(CC)c2cc(C(C#N)C(=O)OCC)c(F)cc2c1=O (centres undefined) , report its log10(MIC).
Response: 0.90

Request: Next: "CCOC(=O)c1cn(Cc2ccccn2)c2cc(F)c(F)cc2c1=O"
Response: 1.81

Request: Next: CCOC(=O)c1cn(Cc2ccc(Cl)cc2Cl)c2cc([C-](C#N)C(=O)OCC)c(F)cc2c1=O.[Na+] (centres undefined)
Response: -0.60

Request: Next: "CCOC(=O)c1cn(CC(=O)N2CCN(C(=O)OC(C)(C)C)CC2)c2cc(F)c(F)cc2c1=O"
Response: 2.11

====

tested on: Staphylococcus aureus; assay: Antibacterial activity against Staphylococcus aureus assessed growth inhibition by micro broth dilution method; type: functional
parameter.measured: MIC (µg/mL)
# value in µg/mL; strip the unit string

The examples below pair each entry with its known result.
Request: Using the record for "CCCn1cc(C(=O)OCC)c(=O)c2cc(F)c(F)cc21" , report its MIC.
Response: 64

Request: Next: CCOC(=O)c1cn(CC(=O)N2CCCCC2)c2cc([C-](C#N)C(=O)OCC)c(F)cc2c1=O.[Na+] (stereo not given)
Response: 256

Request: Next: "CCOC(=O)c1cn(C)c2cc(F)c(F)cc2c1=O"
Response: 128

Request: Next: CCOC(=O)c1cn(Cc2ccccc2Cl)c2cc([C-](C#N)C(=O)OCC)c(F)cc2c1=O.[Na+] (stereo not given)
Response: 256

Request: Next: CCOC(=O)c1cn(CC2CCCCC2)c2cc(C(C#N)C(=O)OCC)c(F)cc2c1=O (stereo not given)
Response: 64

---
Request: Using the record for "CCOC(=O)c1cn(CC(N)=O)c2cc(F)c(F)cc2c1=O" , report its MIC.
Response: 128

Request: Next: "CCOC(=O)c1cn(CC2CCCCC2)c2cc(F)c(F)cc2c1=O"
Response: 16

Request: Next: "CCOC(=O)c1cn(CC2CCC2)c2cc(F)c(F)cc2c1=O"
Response: 64

Request: Next: CCOC(=O)c1cn(CC)c2cc([C-](C#N)C(=O)OCC)c(F)cc2c1=O.[Na+] (stereo not given)
Response: 256

Request: Next: CCOC(=O)c1cn(CC=C(C)C)c2cc([C-](C#N)C(=O)OCC)c(F)cc2c1=O.[Na+] (stereo not given)
Response: 256

====

tested on: Staphylococcus aureus; experiment: Antibacterial activity against Staphylococcus aureus assessed growth inhibition by micro broth dilution method; type: functional
parameter.measured: MIC

Request: Please tell me: MIC of "CCOC(=O)c1cn(Cc2ccccc2)c2cc(F)c(F)cc2c1=O" , system Staphylococcus aureus?
Response: 128 µg/mL

Request: Next: CCOC(=O)c1cn(C2CC2)c2cc([C-](C#N)C(=O)OCC)c(F)cc2c1=O.[Na+] (stereo not given)
Response: 32 µg/mL

Request: Next: CCOC(=O)c1cn(Cc2ccc(F)cc2F)c2cc([C-](C#N)C(=O)OCC)c(F)cc2c1=O.[Na+] (stereo not given)
Response: 128 µg/mL

Request: Next: CCOC(=O)C(C#N)c1cc2c(cc1F)c(=O)c(C(=O)O)cn2CC=C(C)C (stereo not given)
Response: 4 µg/mL

Next molecule, MIC to be filled in.
Request: Please tell me: MIC of CCCCCCCCn1cc(C(=O)OCC)c(=O)c2cc(F)c(C(C#N)C(=O)OCC)cc21 (stereo not given) , system Staphylococcus aureus?
Response: 8 µg/mL
